# Tested on: SW-620 colon
# Experiment notes: NCI-60 one-dose screen, 48 h
# Test context: 10 µM unless noted
About 83,000 compounds went through this panel and 20% of them were active in at least one assay; those are over-represented in the sample as a whole. Calls of active or inactive are those of the source. Rule for the calls: active = growth percent below 10; inactive = the rest.
Labels: active, inactive

compound=Cc1ccc(Nc2nccc(N(C)c3ccc4c(C)n(C)nc4c3)n2)cc1S(N)(=O)=O cat=inactive
compound="CCCC(=O)OCC1OC(n2cnc3c(=S)nc[nH]c32)C(OC(=O)CCC)C1OC(=O)CCC (stereo not given)" cat=inactive
compound=CC(C)c1ccc(/C=N/Nc2nc3ccccc3s2)cc1 cat=inactive
compound=CNS(=O)(=O)Nc1nccc(Cc2c(C)c3ccc(Oc4ncccn4)cc3oc2=O)c1F cat=inactive
compound=Cn1cnc2c(F)c(Nc3ccc(Br)cc3Cl)c(C(=O)NOCCO)cc21 cat=inactive
compound=COc1ccc(CCCc2c3[n+](cc4c(OC)c(OC)ccc24)CCc2cc4c(cc2-3)OCO4)cc1 cat=inactive
compound=CCOc1cc2ncc(C#N)c(Nc3ccc(OCc4ccccn4)c(Cl)c3)c2cc1NC(=O)/C=C/CN(C)C cat=active
compound=C[C@@H](N)c1ccc(C(=O)Nc2ccnc3[nH]ccc23)cc1 cat=inactive
compound="C=CCCCC(=O)CCC(=O)OCC1O[C@@H](O[C@@H]2C(O)[C@@H](OC(C)=O)C(C)O[C@H]2O[C@H](CC=C)CCCCC)C(O)[C@@H](OC(=O)/C(C)=C/C)[C@@H]1OC(=O)/C=C/c1ccccc1 (stereo not given in full)" cat=inactive
compound=C=C1[C@@H](O)C[C@H]2C(C)(C)C[C@H](Cl)C[C@]2(C)[C@H]1C[C@H](O)[C@H]1CC(=O)NC1=O cat=active

src = PubChem BioAssay (NCI)
